assay: xn = mol fraction of the nth substance listed, in the solute-free solvent; conditions: 283.15 K; x2 = 0.3103
The label depends only on solubility (g/100 g solution): 1 if it is at least 0.4, -1 if it is smaller.

Before answering, review these 4 worked examples.
molecule	classification
c1ccc2[nH]c(-c3cscn3)nc2c1 + CC(C)O + O	-1
Nc1cccc(S(=O)(=O)c2cccc(N)c2)c1 + CC(C)O + O	-1
c1ccc2[nH]c(-c3cscn3)nc2c1 + CCCO + O	-1
Cc1[nH]c(=O)c(C#N)cc1-c1ccncc1 + CC(C)O + O	-1

Here is the next item to consider.
Is the recorded value of solubility (g/100 g solution) equal to or greater than 0.4 for this molecule? CN1CCN(C2=Nc3cc(Cl)ccc3Nc3ccccc32)CC1 + CC(C)O + O
1
